Target: UniProt:P25099
Sequence (P25099 whole entry): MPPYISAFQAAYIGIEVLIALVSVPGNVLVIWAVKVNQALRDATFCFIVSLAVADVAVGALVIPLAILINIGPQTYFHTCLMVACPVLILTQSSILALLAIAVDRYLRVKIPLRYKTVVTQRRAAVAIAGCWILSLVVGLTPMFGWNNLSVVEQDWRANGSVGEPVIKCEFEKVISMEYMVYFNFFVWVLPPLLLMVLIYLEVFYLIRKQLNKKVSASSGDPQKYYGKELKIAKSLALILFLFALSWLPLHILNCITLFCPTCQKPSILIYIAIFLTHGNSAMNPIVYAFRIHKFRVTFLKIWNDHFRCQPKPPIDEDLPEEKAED
Assay: Displacement of [3H]DPCPX from rat brain cortical membrane A1AR in absence of GTP by scintillation counting analysis
Type: cell membranes, Cortex, Cell membrane
measured-attribute: IC50 (nM)
Number in nM, nothing else.

Consider the reported IC50 for these compounds:
- chemical-structure: "Cc1ccc(C(=O)c2sc(NC(=O)c3ccco3)nc2-c2ccccc2)cc1"
  IC50 (nM): 0.067
- chemical-structure: "O=C(Nc1nc(-c2ccccc2)c(C(=O)c2ccc(F)cc2F)s1)c1ccccc1"
  IC50 (nM): 3.15

-- ask Record request: IC50 value, item O=C(Nc1nc(-c2ccccc2)c(C(=O)c2ccc(Cl)cc2)s1)c1ccccc1
-- reply 0.0929

-- ask Record request: IC50 value, item COc1ccc(C(=O)Nc2nc(-c3ccccc3)c(C(=O)c3ccc(C)cc3)s2)cc1
-- reply 0.0756

----------
biological target: Adenosine receptor A2b (Homo sapiens)
Sequence (P29275 whole entry): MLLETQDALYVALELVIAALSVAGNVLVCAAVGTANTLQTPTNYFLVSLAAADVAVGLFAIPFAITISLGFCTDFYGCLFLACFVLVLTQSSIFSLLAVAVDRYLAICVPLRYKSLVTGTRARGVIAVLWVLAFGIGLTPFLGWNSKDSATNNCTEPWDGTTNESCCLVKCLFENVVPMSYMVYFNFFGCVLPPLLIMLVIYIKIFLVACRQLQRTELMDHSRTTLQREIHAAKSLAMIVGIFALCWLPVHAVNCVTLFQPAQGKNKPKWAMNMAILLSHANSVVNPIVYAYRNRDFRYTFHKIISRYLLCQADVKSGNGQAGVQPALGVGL
# Lookup of reported Ki keyed by entry

Consider the reported Ki for these compounds:
- chemical-structure: "CC[C@@H]1CN2C(=O)N(C)c3nc(-c4cc(Cl)cc(Cl)c4Cl)[nH]c3C2=N1"
  measured-value: "30000 nM"
- chemical-structure: "O=C(Nc1nc(-c2ccccc2)c(-c2ccccn2)s1)c1ccccc1"
  measured-value: "> 100 nM"
- chemical-structure: "O=C(Nc1nc(-c2ccccc2)c(-c2nc3ccccc3c(=O)n2-c2ccccc2)s1)c1ccco1"
  measured-value: "> 100 nM"
- chemical-structure: "O=C(Nc1nc(-c2ccccc2)c(-c2nc3ccccc3c(=O)n2-c2ccc(Cl)cc2)s1)c1ccccc1"
  measured-value: "> 100 nM"
- chemical-structure: "COc1ccc(-n2c(-c3sc(NC(=O)c4ccco4)nc3-c3ccccc3)nc3ccccc3c2=O)cc1"
  measured-value: "> 100 nM"
- chemical-structure: "COc1ccc(C(=O)Nc2nc(-c3ccccc3)c(C(=O)c3ccccc3)s2)cc1"
  measured-value: "> 100 nM"

-- ask Give Ki (Adenosine receptor A2b (Homo sapiens)) of the following compound: CCCOC(=O)c1c(-c2ccccc2)nc(CC)c(C(=O)SCC)c1CCC
-- reply > 10000 nM

-- ask Give Ki (Adenosine receptor A2b (Homo sapiens)) of the following compound: O=C(Nc1nc(-c2ccccc2)c(-c2nc3ccccc3c(=O)n2-c2ccc(Cl)cc2)s1)c1ccco1
-- reply > 100 nM

-- ask Give Ki (Adenosine receptor A2b (Homo sapiens)) of the following compound: COc1ccc(C(=O)Nc2nc(-c3ccccc3)c(C(=O)c3ccc(F)cc3F)s2)cc1
-- reply > 100 nM

----------
# Lookup of reported pKi keyed by entry
target: Adenosine receptor A1 (Rattus norvegicus); experiment: Displacement of [3H]CCPA from adenosine receptor A1 in rat brain cortex membranes incubated for 90 mins by radioligand competition assay; assay type: cell membranes, Cell membrane
pKi here: minus log base 10 of the concentration, concentration in moles per litre.

Consider the reported pKi for these compounds:
- chemical-structure: "CCCCn1c(=O)c2[nH]c(C34CC5CC(CC3C5)C4)nc2n(CCCO)c1=O"
  system-tested: "Adenosine receptor A1 (Rattus norvegicus)"
  measured-value: 9.91
- chemical-structure: "O=C(Nc1nc(-c2ccccc2)c(C(=O)c2ccc(F)cc2F)s1)c1ccccc1"
  system-tested: "Adenosine receptor A1 (Rattus norvegicus)"
  measured-value: 8.55
- chemical-structure: "COc1ccc(C(=O)Nc2nc(-c3ccccc3)c(C(=O)c3ccc(C)cc3)s2)cc1"
  system-tested: "Adenosine receptor A1 (Rattus norvegicus)"
  measured-value: 9.28
- chemical-structure: "COc1ccc(C(=O)Nc2nc(-c3ccccc3)c(C(=O)c3ccccc3)s2)cc1"
  system-tested: "Adenosine receptor A1 (Rattus norvegicus)"
  measured-value: 8.83
- chemical-structure: "O=C(Nc1nc(-c2ccccc2)c(C(=O)c2ccc(Cl)cc2)s1)c1ccccc1"
  system-tested: "Adenosine receptor A1 (Rattus norvegicus)"
  measured-value: 9.03

-- ask Record request: pKi value, item O=C(Nc1nc(-c2ccccc2)c(C(=O)c2ccc(F)cc2F)s1)c1ccco1
-- reply 8.17

-- ask Record request: pKi value, item O=C(Nc1nc(-c2ccccc2)c(-c2ccccn2)s1)c1ccccc1
-- reply 8.46

-- ask Record request: pKi value, item CC[C@@H]1CN2C(=O)N(C)c3nc(-c4cc(Cl)cc(Cl)c4Cl)[nH]c3C2=N1
-- reply 6.09

Source of measurements: ChEMBL document CHEMBL4680130
